Reference for the values: ChEMBL document CHEMBL3734720

Assay: Antiproliferative activity against human PC3 cells assessed as growth inhibition after 48 hrs by SRB assay
Format: functional
Settings: PC-3, 48 h
Kindly state GI50 for each of the entries shown.

Consider `S=C(N/N=C/c1cccs1)Nc1cccnc1` . Its measured GI50 is > 100 µM

Quick note, GI50 for `CCc1ccc(NC(=S)N/N=C/c2cccs2)cc1` landed at > 100 µM

Reported GI50 for `S=C(N/N=C/c1cccs1)Nc1ccccc1` was > 100 µM

Record summary for `S=C(N/N=C/c1cccs1)Nc1ccc(Br)cc1` : reported GI50 = 79.4 µM

// GI50 lookup, compound = `COc1cccc2c1C(=O)c1c(O)c3c(c(O)c1C2=O)C[C@@](O)(C(=O)CO)C[C@@H]3O[C@H]1C[C@H](N)[C@H](O)[C@H](C)O1` , result: 0.13 µM

What the record says about `S=C(NCCc1ccccc1)N/N=C/c1cccs1` : GI50 is > 100 µM
